System: NCI-H1993 (Lung Adenocarcinoma)
Assay: Bliss excess, mean over the matrix (fraction); higher = more synergy
measurementLabel: Bliss excess
Give the figure by itself; no unit, no explanation.

Below, 2 molecules whose answers are already recorded.
# molecule, observed
data = [
    ("Cc1c2c(nn1C)CSCc1cc(n(C)n1)CSc1cc(c3ccccc3c1)OCCCc1c(C(=O)O)n(C)c3c-2c(Cl)ccc13 [AZD5991] + Nc1ccn([C@@H]2O[C@H](CO)[C@@H](O)C2(F)F)c(=O)n1 [Gemcitabine] (first compound max 1 µM, 7x7, partner max 0.3 µM)", -0.0064),
    ("COc1nnc2ccc(N3CCC(c4ccc(OCCN5CCN(C)C(=O)[C@H]5C)cc4)CC3)nn12 [AZD5153] + Cc1c2c(nn1C)CSCc1cc(n(C)n1)CSc1cc(c3ccccc3c1)OCCCc1c(C(=O)O)n(C)c3c-2c(Cl)ccc13 [AZD5991] (first compound max 1 µM, 7x7, partner max 1 µM)", -0.0106),
]

Input: Quote NCI-H1993 (Lung Adenocarcinoma) Bliss excess for entry C[C@@H](Nc1cc(F)cc(F)c1)c1cc(C(=O)N(C)C)cc2c(=O)cc(N3CCOCC3)oc12 [AZD8186] + C1CN(CCC1(C(=O)N[C@@H](CCO)C2=CC=C(C=C2)Cl)N)C3=NC=NC4=C3C=CN4 [AZD5363] (first compound max 10 µM, 7x7, partner max 10 µM) .
Output: 0.0154

Input: Recall the reported Bliss excess of C[C@@H]1COCCN1c1cc(C2([S@](C)(=N)=O)CC2)nc(-c2ccnc3[nH]ccc23)n1 [AZD6738] + Nc1ccn([C@@H]2O[C@H](CO)[C@@H](O)C2(F)F)c(=O)n1 [Gemcitabine] (first compound max 10 µM, 7x7, partner max 0.3 µM) when tested on NCI-H1993 (Lung Adenocarcinoma).
Output: -0.0098

Input: Fetch value of Bliss excess on NCI-H1993 (Lung Adenocarcinoma) for CN(C)CCCOc1ccc(-c2ccc3ncc4c(c3c2)n(C2CCOCC2)c(=O)n4C)cn1 [AZD0156] + C[C@@H]1COCCN1C2=NC(=NC(=C2)C3(CC3)[S@](=N)(=O)C)C4=C5C=CNC5=NC=C4 [AZD6738] (first compound max 1 µM, 7x7, partner max 10 µM) .
Output: -0.0329

Input: Param request: Bliss excess | system NCI-H1993 (Lung Adenocarcinoma) | item CCN(CCO)CCCOc1ccc2c(Nc3cc(CC(=O)Nc4cccc(F)c4)[nH]n3)ncnc2c1 [AZD2811] + C=CCn1c(=O)c2cnc(Nc3ccc(N4CCN(C)CC4)cc3)nc2n1-c1cccc(C(C)(C)O)n1 [AZD1775] (first compound max 1 µM, partner max 1 µM)
Output: 0.0219

Input: Given C[C@@H](Oc1cc(-c2cnn(C3CCNCC3)c2)cnc1N)c1c(Cl)ccc(F)c1Cl [Crizotinib] + Cn1cnc2c(F)c(Nc3ccc(Br)cc3Cl)c(C(=O)NOCCO)cc21 [Selumetinib] (first compound max 10 µM, 7x7, partner max 10 µM) , report its Bliss excess on NCI-H1993 (Lung Adenocarcinoma).
Output: 0.0034

====

Test system: Hey (Ovarian Carcinoma)
Assay: Bliss excess, mean over the matrix (fraction); higher = more synergy
Property: Bliss excess; scope: individual compounds
Just the number, please, no unit attached.

Some compounds with recorded Bliss excess:
# compound, Bliss excess
records = [
    ("CS(=O)(=O)CCNCc1ccc(-c2ccc3ncnc(Nc4ccc(OCc5cccc(F)c5)c(Cl)c4)c3c2)o1 [Lapatinib] + C[C@@H](Oc1cc(-c2cnn(C3CCNCC3)c2)cnc1N)c1c(Cl)ccc(F)c1Cl [Crizotinib] (first compound max 10 µM, 7x7, partner max 10 µM)", -0.0526),
    ("CCc1c2c(nc3ccc(O)cc13)-c1cc3c(c(=O)n1C2)COC(=O)[C@]3(O)CC [SN-38] + O=C(c1cc(Cc2n[nH]c(=O)c3ccccc23)ccc1F)N1CCN(C(=O)C2CC2)CC1 [Olaparib] (first compound max 0.3 µM, 7x7, partner max 10 µM)", 0.0559),
]

Attention now turns to another entry.
Input: Given CN(CCO)CC[C@H](CSc1ccccc1)Nc1ccc(S(=O)(=O)NC(=O)c2ccc(N3CCC([C@@H](O)c4ccccc4-c4ccc(Cl)cc4)CC3)cc2)cc1S(=O)(=O)C(F)(F)F [AZD4320] + C[C@@H](Nc1cc(F)cc(F)c1)c1cc(C(=O)N(C)C)cc2c(=O)cc(N3CCOCC3)oc12 [AZD8186] (first compound max 1 µM, 7x7, partner max 3 µM) , report its Bliss excess on Hey (Ovarian Carcinoma).
Output: -0.0027

====

Test system: NCI-H650 (Lung Adenocarcinoma)
Test: Bliss excess, mean over the matrix (fraction); higher = more synergy
measurementLabel: Bliss excess
Reply with just the number.

# compound, Bliss excess
records = [
    ("Cc1c2c(nn1C)CSCc1cc(n(C)n1)CSc1cc(c3ccccc3c1)OCCCc1c(C(=O)O)n(C)c3c-2c(Cl)ccc13 [AZD5991] + CN(C)CCCOc1ccc(-c2ccc3ncc4c(c3c2)n(C2CCOCC2)c(=O)n4C)cn1 [AZD0156] (first compound max 1 µM, 7x7, partner max 1 µM)", 0.0527),
    ("NC1(C(=O)N[C@@H](CCO)c2ccc(Cl)cc2)CCN(c2ncnc3[nH]ccc23)CC1 [Capivasertib] + CC(=O)c1c(C)c2cnc(Nc3ccc(N4CCNCC4)cn3)nc2n(C2CCCC2)c1=O [Palbociclib] (first compound max 10 µM, 7x7, partner max 10 µM)", -0.0413),
]

Turning now to a further record.
Input: Tell me measured Bliss excess for CC1(C)CCC(CN2CCN(c3ccc(C(=O)NS(=O)(=O)c4ccc(NCC5CCOCC5)c([N+](=O)[O-])c4)c(Oc4cnc5[nH]ccc5c4)c3)CC2)=C(c2ccc(Cl)cc2)C1 [Venetoclax] + Cn1cnc2c(F)c(Nc3ccc(Br)cc3Cl)c(C(=O)NOCCO)cc21 [Selumetinib] (first compound max 1 µM, 7x7, partner max 3 µM) please.
Output: -0.0217

====

Tested on: OE33 (Esophageal Adenocarcinoma)
Test: combination Emax (second highest fraction inhibited in the dose matrix, 72 h); higher = more inhibition; extreme values may be limits of the assay
measurementLabel: combination Emax
Answer field: number only, no words.

# molecule, testSystem, combination Emax
records = [
    ("COc1cc2ncnc(Nc3ccc(F)c(Cl)c3)c2cc1OCCCN1CCOCC1 [Gefitinib] + CC(C)n1c(=O)n(C)c2cnc3cc(F)c(-c4ccc(OCCCN5CCCCC5)nc4)cc3c21 [AZD1390] (first compound max 10 µM, 7x7, partner max 0.3 µM)", "OE33 (Esophageal Adenocarcinoma)", 0.413),
]

Input: Dear colleague, please send me the reported combination Emax for C[C@@H]1COCCN1c1cc(C2([S@](C)(=N)=O)CC2)nc(-c2ccnc3[nH]ccc23)n1 [AZD6738] + O=C(c1cc(Cc2n[nH]c(=O)c3ccccc23)ccc1F)N1CCN(C(=O)C2CC2)CC1 [Olaparib] (first compound max 10 µM, 7x7, partner max 10 µM) when you can.
Output: 0.721

====

Test system: KGN (Other Solid Carcinomas)
Test: Bliss excess, mean over the matrix (fraction); higher = more synergy
Cut-off 0.02 on Bliss excess, inclusive. At or above means true; below means false.

Field: example entries. Status: answers known.
# molecule, answerLabel
records = [
    ("C[C@@H](Nc1cc(F)cc(F)c1)c1cc(C(=O)N(C)C)cc2c(=O)cc(N3CCOCC3)oc12 [AZD8186] + CC(=O)c1c(C)c2cnc(Nc3ccc(N4CCNCC4)cn3)nc2n(C2CCCC2)c1=O [Palbociclib] (first compound max 10 µM, 7x7, partner max 10 µM)", "true"),
    ("C[C@@H]1COCCN1c1cc(C2([S@](C)(=N)=O)CC2)nc(-c2ccnc3[nH]ccc23)n1 [AZD6738] + C1CC(C1)(C(=O)[O-])C(=O)[O-].N.N.[Pt+2] [Carboplatin] (first compound max 10 µM, 7x7, partner max 10 µM)", "false"),
]

Input: Does Bliss excess meet or surpass 0.02 for CCN(CCO)CCCOc1ccc2c(Nc3cc(CC(=O)Nc4cccc(F)c4)[nH]n3)ncnc2c1 [AZD2811] + C=CCn1c(=O)c2cnc(Nc3ccc(N4CCN(C)CC4)cc3)nc2n1-c1cccc(C(C)(C)O)n1 [AZD1775] (first compound max 1 µM, partner max 1 µM) ?
Output: false

Input: Decide: is the reported value of Bliss excess for COc1cccc(OCCCN)c1-c1cc(Nc2cnc(C#N)cn2)n[nH]1 [Prexasertib] + CCc1c2c(nc3ccc(O)cc13)-c1cc3c(c(=O)n1C2)COC(=O)[C@]3(O)CC [SN-38] (first compound max 1 µM, 7x7, partner max 0.3 µM) equal to or greater than 0.02?
Output: false

Input: Test whether the molecule C[C@@H](Nc1cc(F)cc(F)c1)c1cc(C(=O)N(C)C)cc2c(=O)cc(N3CCOCC3)oc12 [AZD8186] + C1CN(CCC1(C(=O)N[C@@H](CCO)C2=CC=C(C=C2)Cl)N)C3=NC=NC4=C3C=CN4 [AZD5363] (first compound max 10 µM, 7x7, partner max 10 µM) records Bliss excess of 0.02 or higher.
Output: true

Input: Does the molecule O=C(c1cc(Cc2n[nH]c(=O)c3ccccc23)ccc1F)N1CCN(C(=O)C2CC2)CC1 [Olaparib] + COc1nnc2ccc(N3CCC(c4ccc(OCCN5CCN(C)C(=O)[C@H]5C)cc4)CC3)nn12 [AZD5153] (first compound max 10 µM, 7x7, partner max 1 µM) have recorded Bliss excess that is 0.02 or more?
Output: false

Input: Entry NC1(C(=O)N[C@@H](CCO)c2ccc(Cl)cc2)CCN(c2ncnc3[nH]ccc23)CC1 [Capivasertib] + COc1nnc2ccc(N3CCC(c4ccc(OCCN5CCN(C)C(=O)[C@H]5C)cc4)CC3)nn12 [AZD5153] (first compound max 10 µM, 7x7, partner max 1 µM) : is its Bliss excess no less than 0.02?
Output: true
